The values you see were collected from paper PMC8809517.

- measuredOn: T1, GFP-9S library array, motif 4 ND N98C;D124M (synthetic construct, N98C;D124M)
- T1 chain: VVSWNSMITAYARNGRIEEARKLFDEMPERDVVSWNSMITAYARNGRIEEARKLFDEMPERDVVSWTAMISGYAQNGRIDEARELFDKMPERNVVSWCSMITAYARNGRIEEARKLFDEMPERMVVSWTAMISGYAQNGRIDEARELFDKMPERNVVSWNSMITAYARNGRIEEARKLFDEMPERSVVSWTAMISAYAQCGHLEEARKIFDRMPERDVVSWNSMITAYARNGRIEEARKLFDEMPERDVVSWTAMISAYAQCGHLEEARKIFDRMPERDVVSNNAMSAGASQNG
- testMethodNotes: high-throughput RNA pulldown from lysate on Ni-NTA beads; HRP: 50 mM Tris pH 8, 150 mM NaCl, 1 mM beta-mercaptoethanol, 50 ug/ml BSA, 3 ug/ml yeast RNA, 0.5% heparin; ITC and FP: Tris pH 8, 200 mM KCl, 5% glycerol; MST: 50 mM Tris pH 8, 200 mM NaCl, 1 mM DTT, BSA, heparin, 0.05% Tween 20
- reportedConditions: tags: N-terminal His-eGFP; label: 5' IRDye 800CW
valueType: Kd (nM)

binder: AUUAUACGUGA (ssRNA) [IR-rpoA-U]
valueType: Kd
recordedNumber: 179

binder: AUUAAACGUGA (ssRNA) [IR-rpoA-A]
valueType: Kd
recordedNumber: 266
